PROTOCOL_SUMMARY: MM1S myeloma cell viability, profiling panel, resazurin fluorescence, basal, 24 h, PK04 Diversity Set (AID 1174);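 further: MM1S multiple myeloma cell line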
CONDITION_PARAMETERS: higher = more signal, called active from +8 up or from −8 down
Below, each entry is listed alongside its reported z-score.

| COMPOUND | z-score |
| --- | --- |
| CS(=O)(=O)CCOC(=O)C1=CC(CCCO)=CC(C2CC2)N(Cc2sc3ccccc3c2Cl)C=C1C(=O)OCCS(C)(=O)=O (configuration not stated) | -0.548 |
| CCCCCCc1nc(Cc2cc(OC)c(OC)c(OC)c2)c(C)c2c1[Si](C(C)C)(C(C)C)OC2 | 0.328 |
| Cc1ccc(N2C(=O)c3ccccc3[C@@H](C(=O)NCCN3CCOCC3)[C@@H]2c2ccc(CO)cc2)nc1 | 0.544 |
| CC(C)[Si]1(C(C)C)OCc2cc(-c3ccc(-c4ccc(Cl)c(Cl)c4)o3)nc(-c3ccc(Oc4ccccc4)cc3)c21 | -0.0996 |
| COCCOC(=O)N1C(=O)[C@@]2(c3ccccc31)[C@H](C(=O)Nc1nc3ccccc3s1)[C@H]1C(=O)O[C@H](c3ccccc3)[C@H](c3ccccc3)N1[C@@H]2c1ccccc1OCCO | -0.304 |
| C=CCN1C(=O)[C@@]2(O[C@@H](CCO)[C@H]([Si](C)(C)c3ccc(OC)cc3)[C@H]2C)c2cc(N3CCCCC3=O)ccc21 | -4.57 |
| COc1ccc(CCNC(=O)[C@@H]2c3ccccc3C(=O)N(C(C)C)[C@H]2c2ccc(CO)cc2)cc1 | 1.35 |

----------
Below, each entry is listed alongside its reported composite z-score.
Tested on: XIP peptide (Xip251-270)
PROTOCOL_SUMMARY: small-molecule binders of XIP peptide, primary screen, biochemical, small-molecule microarray, fluorescence 635/667 nm, 0.5 µg/mL protein (AID 1183)
CONDITION_PARAMETERS: small-molecule microarray binding, fluorescence 635 nm; higher = more signal
MEASURED_ATTRIBUTE: composite z-score

| COMPOUND | READOUT_VALUE |
| --- | --- |
| COc1cc(Cc2cc3c(c(-c4ccccc4)n2)[Si](C(C)C)(C(C)C)OC3)cc(OC)c1OC | -1.01 |
| Cc1ccc(S[C@]2(C(=O)NC(C)C)CC(=O)N(Cc3ccccc3)[C@@H]2c2ccc(CO)cc2)cc1 | 0.123 |
| CCOC(=O)C1=CC[C@@H](c2ccccc2)N(S(=O)(=O)c2ccc(C)cc2)[C@@H]1C#N | 0.423 |
| CCCN1C(=O)[C@@]2(c3ccc([N+](=O)[O-])cc3)CC(=O)N(C3CCCCC3)[C@@H]2c2ccc(CO)cc21 | 0.107 |
| COc1ccc([Si](C)(C)[C@H]2[C@H](CC(=O)N3CCC[C@H]3CO)O[C@@]3(C(=O)N(C)c4ccccc43)[C@@H]2C)cc1 | 0.924 |
| C[N+](C)(C)CCCC[C@@H]1NC(=O)[C@H]2C[C@@H](C(=O)NCCCCCN)[C@@H](c3ccc(O)cc3)N2C1=O | 0.69 |
| CCCCN1CC=CC23O[C@@H]4C=CCCOC(=O)C4[C@H]2C(=O)N(CCO)[C@@H]3C1=O (stereo partly drawn) | 0.485 |
| COc1ccc(CCNC(=O)[C@@]2(C)c3ccccc3C(=O)N(Cc3ccc(OC(F)(F)F)cc3)[C@H]2c2ccc(CO)cc2)cc1 | 0.666 |
